MEASUREMENT TARGET: CaMK2d (Mus musculus)
Construct: […]; from tissue; host or cells: mouse brain
Sequence (Q6PHZ2 whole entry): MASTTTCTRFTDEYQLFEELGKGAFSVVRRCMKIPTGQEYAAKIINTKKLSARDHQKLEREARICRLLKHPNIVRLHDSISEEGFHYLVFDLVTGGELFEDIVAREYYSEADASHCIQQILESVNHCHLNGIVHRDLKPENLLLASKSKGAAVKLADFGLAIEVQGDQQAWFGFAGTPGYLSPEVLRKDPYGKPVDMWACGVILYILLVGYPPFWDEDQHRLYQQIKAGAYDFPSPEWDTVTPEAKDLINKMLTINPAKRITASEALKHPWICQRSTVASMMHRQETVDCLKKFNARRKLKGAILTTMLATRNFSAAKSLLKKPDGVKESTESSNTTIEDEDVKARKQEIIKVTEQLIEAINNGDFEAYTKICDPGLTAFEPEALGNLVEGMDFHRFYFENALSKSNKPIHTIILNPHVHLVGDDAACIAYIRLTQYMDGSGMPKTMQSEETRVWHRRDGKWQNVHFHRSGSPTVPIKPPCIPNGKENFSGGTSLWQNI
METHOD DESCRIPTION: Kinobeads elution with test compound, mouse brain lysate, MS
Assay type: binding
MEASUREMENT CONDITIONS: kinase released from kinobeads by specific elution
Quick reference: number of identified peptides, CaMK2d of the listed items.
Just the number, please, no unit attached.

Answered examples (5):
{"columns": ["MOLECULE", "MEASUREMENT TARGET", "RESULT VALUE"],
 "data": [
  ["CNC1CC2OC(C)(C1OC)n1c3ccccc3c3c4c(c5c6ccccc6n2c5c31)C(=O)NC4 (stereo not drawn) [CZC9280]", "CaMK2d (Mus musculus)", 40],
  ["CC(C)[C@H](CO)Nc1nc(Nc2ccc(C(=O)O)c(Cl)c2)c2ncn(C(C)C)c2n1 [Purvalanol B, reference compound]", "CaMK2d (Mus musculus)", 12],
  ["Cn1c(=O)c(-c2c(Cl)cccc2Cl)cc2cnc(Nc3ccc(CN)cc3)cc21 [CZC7324]", "CaMK2d (Mus musculus)", 7],
  ["CCCCCCCCCCCCOS(=O)(=O)[O-].[Na+] [SDS]", "CaMK2d (Mus musculus)", 36],
  ["NCc1ccc(Nc2ncc(F)c(Nc3ccccc3)n2)cc1 [CZC00008004]", "CaMK2d (Mus musculus)", 11]
]}

Now take the following molecule into account.
Problem: Identify the measured number of identified peptides, CaMK2d of NCCCn1cc(C2=C(c3c[nH]c4ccccc34)C(=O)NC2=O)c2ccccc21 [CZC1038, Bisindolylmaleimide III, reference compound] for CaMK2d (Mus musculus).
Solution: 17

Attribution: patent US20090238808A1
